B1: Caulobacter ParB omega fusion; a variant is named by its letters at X, in order, B8GW30 (parent)
chain: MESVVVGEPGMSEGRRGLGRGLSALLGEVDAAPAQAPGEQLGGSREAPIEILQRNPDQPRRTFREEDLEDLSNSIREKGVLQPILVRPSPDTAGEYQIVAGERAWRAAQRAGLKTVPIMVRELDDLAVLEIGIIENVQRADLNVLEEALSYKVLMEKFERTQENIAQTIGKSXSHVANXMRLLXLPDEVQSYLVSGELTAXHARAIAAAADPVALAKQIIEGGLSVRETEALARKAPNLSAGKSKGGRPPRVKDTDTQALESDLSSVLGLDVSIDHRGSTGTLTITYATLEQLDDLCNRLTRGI

Variants of: B1
Assay: one-hybrid fitness for binding parS DNA (scaled: cognate 1, non-cognate 0); higher = stronger binding
Conditions: with parS DNA site
Whole data set: some 81,000 sequences, median “one-hybrid fitness for binding parS DNA” near -0.17, cut for the highest 2% near 0.51. What follows is part of a selection rich in the highest values, with near analogues and random picks from the rest.
test_readout: one-hybrid fitness for binding parS DNA

Lookup: one-hybrid fitness for binding parS DNA lookup needed for RAEK , thanks.
Found: ≤ 0.2

Lookup: one-hybrid fitness for binding parS DNA lookup needed for KWCS , thanks.
Found: ≤ 0.2

Lookup: one-hybrid fitness for binding parS DNA lookup needed for HFES , thanks.
Found: ≤ 0.2

Lookup: one-hybrid fitness for binding parS DNA lookup needed for WLII , thanks.
Found: ≤ 0.2

Lookup: one-hybrid fitness for binding parS DNA lookup needed for SSDD , thanks.
Found: ≤ 0.2

Lookup: one-hybrid fitness for binding parS DNA lookup needed for KAVS , thanks.
Found: ≤ 0.2

Lookup: one-hybrid fitness for binding parS DNA lookup needed for RMVH , thanks.
Found: ≤ 0.2

Lookup: one-hybrid fitness for binding parS DNA lookup needed for RAKK , thanks.
Found: ≤ 0.2

Lookup: one-hybrid fitness for binding parS DNA lookup needed for VNTS , thanks.
Found: ≤ 0.2

Lookup: one-hybrid fitness for binding parS DNA lookup needed for RYIK , thanks.
Found: ≤ 0.2

Lookup: one-hybrid fitness for binding parS DNA lookup needed for WTPL , thanks.
Found: ≤ 0.2

Lookup: one-hybrid fitness for binding parS DNA lookup needed for EPPR , thanks.
Found: ≤ 0.2

Lookup: one-hybrid fitness for binding parS DNA lookup needed for PCYG , thanks.
Found: ≤ 0.2

Lookup: one-hybrid fitness for binding parS DNA lookup needed for RWYM , thanks.
Found: ≤ 0.2

Lookup: one-hybrid fitness for binding parS DNA lookup needed for RAVG , thanks.
Found: 0.923

Lookup: one-hybrid fitness for binding parS DNA lookup needed for TRHF , thanks.
Found: ≤ 0.2

Lookup: one-hybrid fitness for binding parS DNA lookup needed for RRET , thanks.
Found: 0.674

Lookup: one-hybrid fitness for binding parS DNA lookup needed for RLPN , thanks.
Found: 0.225

Lookup: one-hybrid fitness for binding parS DNA lookup needed for RCET , thanks.
Found: 0.758

Lookup: one-hybrid fitness for binding parS DNA lookup needed for RWGF , thanks.
Found: ≤ 0.2

Lookup: one-hybrid fitness for binding parS DNA lookup needed for RPET , thanks.
Found: ≤ 0.2

Lookup: one-hybrid fitness for binding parS DNA lookup needed for RAKG , thanks.
Found: 0.937

Lookup: one-hybrid fitness for binding parS DNA lookup needed for RTNP , thanks.
Found: ≤ 0.2

Lookup: one-hybrid fitness for binding parS DNA lookup needed for QTGF , thanks.
Found: ≤ 0.2

Lookup: one-hybrid fitness for binding parS DNA lookup needed for RYRV , thanks.
Found: ≤ 0.2

Lookup: one-hybrid fitness for binding parS DNA lookup needed for VRYQ , thanks.
Found: ≤ 0.2

Lookup: one-hybrid fitness for binding parS DNA lookup needed for RHEM , thanks.
Found: 0.214

Lookup: one-hybrid fitness for binding parS DNA lookup needed for RLAC , thanks.
Found: 0.995

Lookup: one-hybrid fitness for binding parS DNA lookup needed for RRFD , thanks.
Found: ≤ 0.2

Lookup: one-hybrid fitness for binding parS DNA lookup needed for MHTL , thanks.
Found: ≤ 0.2

Lookup: one-hybrid fitness for binding parS DNA lookup needed for GEYG , thanks.
Found: ≤ 0.2

Lookup: one-hybrid fitness for binding parS DNA lookup needed for NAAA , thanks.
Found: ≤ 0.2

Lookup: one-hybrid fitness for binding parS DNA lookup needed for RDET , thanks.
Found: ≤ 0.2

Lookup: one-hybrid fitness for binding parS DNA lookup needed for RWYC , thanks.
Found: 0.662

Lookup: one-hybrid fitness for binding parS DNA lookup needed for DASR , thanks.
Found: ≤ 0.2

Lookup: one-hybrid fitness for binding parS DNA lookup needed for LQFE , thanks.
Found: ≤ 0.2

Lookup: one-hybrid fitness for binding parS DNA lookup needed for RWIG , thanks.
Found: 0.569

Lookup: one-hybrid fitness for binding parS DNA lookup needed for RLFP , thanks.
Found: ≤ 0.2

Lookup: one-hybrid fitness for binding parS DNA lookup needed for NQIG , thanks.
Found: ≤ 0.2

Lookup: one-hybrid fitness for binding parS DNA lookup needed for IDQR , thanks.
Found: ≤ 0.2

Lookup: one-hybrid fitness for binding parS DNA lookup needed for RAKQ , thanks.
Found: ≤ 0.2

Lookup: one-hybrid fitness for binding parS DNA lookup needed for RRIW , thanks.
Found: ≤ 0.2

Lookup: one-hybrid fitness for binding parS DNA lookup needed for RWYP , thanks.
Found: ≤ 0.2

Lookup: one-hybrid fitness for binding parS DNA lookup needed for PLWA , thanks.
Found: ≤ 0.2

Lookup: one-hybrid fitness for binding parS DNA lookup needed for SDKW , thanks.
Found: ≤ 0.2

Lookup: one-hybrid fitness for binding parS DNA lookup needed for RTHC , thanks.
Found: 0.978

Lookup: one-hybrid fitness for binding parS DNA lookup needed for RTFS , thanks.
Found: 1.03

Lookup: one-hybrid fitness for binding parS DNA lookup needed for QRLS , thanks.
Found: ≤ 0.2

Lookup: one-hybrid fitness for binding parS DNA lookup needed for MQRR , thanks.
Found: ≤ 0.2

Lookup: one-hybrid fitness for binding parS DNA lookup needed for NTRC , thanks.
Found: ≤ 0.2

Lookup: one-hybrid fitness for binding parS DNA lookup needed for PDGT , thanks.
Found: ≤ 0.2

Lookup: one-hybrid fitness for binding parS DNA lookup needed for AVTF , thanks.
Found: ≤ 0.2

Lookup: one-hybrid fitness for binding parS DNA lookup needed for RTGQ , thanks.
Found: ≤ 0.2

Lookup: one-hybrid fitness for binding parS DNA lookup needed for INCG , thanks.
Found: ≤ 0.2

Lookup: one-hybrid fitness for binding parS DNA lookup needed for PTIM , thanks.
Found: ≤ 0.2

Lookup: one-hybrid fitness for binding parS DNA lookup needed for RWWC , thanks.
Found: 0.521

Lookup: one-hybrid fitness for binding parS DNA lookup needed for TRNR , thanks.
Found: ≤ 0.2

Lookup: one-hybrid fitness for binding parS DNA lookup needed for MLTT , thanks.
Found: ≤ 0.2

Lookup: one-hybrid fitness for binding parS DNA lookup needed for RFDG , thanks.
Found: 0.814

Lookup: one-hybrid fitness for binding parS DNA lookup needed for RMKQ , thanks.
Found: ≤ 0.2

Lookup: one-hybrid fitness for binding parS DNA lookup needed for RLFH , thanks.
Found: 0.258

Lookup: one-hybrid fitness for binding parS DNA lookup needed for AVCE , thanks.
Found: ≤ 0.2

Lookup: one-hybrid fitness for binding parS DNA lookup needed for RFHY , thanks.
Found: 0.462

Lookup: one-hybrid fitness for binding parS DNA lookup needed for RLPS , thanks.
Found: 0.86

Lookup: one-hybrid fitness for binding parS DNA lookup needed for RIKM , thanks.
Found: 0.325

Lookup: one-hybrid fitness for binding parS DNA lookup needed for DFNG , thanks.
Found: ≤ 0.2

Lookup: one-hybrid fitness for binding parS DNA lookup needed for VEVT , thanks.
Found: ≤ 0.2

Lookup: one-hybrid fitness for binding parS DNA lookup needed for RLIP , thanks.
Found: ≤ 0.2

Lookup: one-hybrid fitness for binding parS DNA lookup needed for RWYG , thanks.
Found: 0.714

Lookup: one-hybrid fitness for binding parS DNA lookup needed for RLIN , thanks.
Found: 0.38

Lookup: one-hybrid fitness for binding parS DNA lookup needed for RTAD , thanks.
Found: ≤ 0.2

Lookup: one-hybrid fitness for binding parS DNA lookup needed for RTAS , thanks.
Found: 0.968

Lookup: one-hybrid fitness for binding parS DNA lookup needed for RHET , thanks.
Found: 0.734

Lookup: one-hybrid fitness for binding parS DNA lookup needed for RIVH , thanks.
Found: ≤ 0.2

Lookup: one-hybrid fitness for binding parS DNA lookup needed for GRNC , thanks.
Found: ≤ 0.2

Lookup: one-hybrid fitness for binding parS DNA lookup needed for DAAA , thanks.
Found: ≤ 0.2

Lookup: one-hybrid fitness for binding parS DNA lookup needed for RIKF , thanks.
Found: 0.303

Lookup: one-hybrid fitness for binding parS DNA lookup needed for SGLP , thanks.
Found: ≤ 0.2

Lookup: one-hybrid fitness for binding parS DNA lookup needed for NWWC , thanks.
Found: ≤ 0.2

Lookup: one-hybrid fitness for binding parS DNA lookup needed for RTGC , thanks.
Found: 0.955

Lookup: one-hybrid fitness for binding parS DNA lookup needed for RLIS , thanks.
Found: 1

Lookup: one-hybrid fitness for binding parS DNA lookup needed for SPTS , thanks.
Found: ≤ 0.2

Lookup: one-hybrid fitness for binding parS DNA lookup needed for HFLP , thanks.
Found: ≤ 0.2

Lookup: one-hybrid fitness for binding parS DNA lookup needed for SMQP , thanks.
Found: ≤ 0.2

Lookup: one-hybrid fitness for binding parS DNA lookup needed for FKLC , thanks.
Found: ≤ 0.2

Lookup: one-hybrid fitness for binding parS DNA lookup needed for RCEF , thanks.
Found: ≤ 0.2

Lookup: one-hybrid fitness for binding parS DNA lookup needed for PQAF , thanks.
Found: ≤ 0.2

Lookup: one-hybrid fitness for binding parS DNA lookup needed for YNKG , thanks.
Found: ≤ 0.2

Lookup: one-hybrid fitness for binding parS DNA lookup needed for YLKH , thanks.
Found: 0.358

Lookup: one-hybrid fitness for binding parS DNA lookup needed for RFNG , thanks.
Found: 1

Lookup: one-hybrid fitness for binding parS DNA lookup needed for QARI , thanks.
Found: ≤ 0.2
